Data provenance is the supplement of paper PMC11865577.

test system: TO-N3-2 (biotin conjugate); experiment: pull-down binding Z-score (relative to library population); higher = stronger binding; settings: RNA library: Library-2
MEASURE: pull-down binding Z-score

1. CUAUGGCCCCCCUCCUCUCUGAAAGCAAGGCCACUUG [hsa-mir-8081]: 0.982
2. UGCUUUACUUUUAAUGGCA [hsa-mir-548k]: -1.34
3. UGUGCCUGCCUUCGAAGUGCACGGCAGG [hsa-mir-4297]: 0.753
4. CCGAAUACCAUAAUGAAUCUGGCUUGAAAACCAUUCUUCGUAAGGGUGGUCGCACUAUUGCCUUUGG [DMSMaPseq_invitro_SARS-CoV-2_Multi_5_ComplexLevel_1]: 0.178
5. ACAGGUAGUGGCCACAGUGAGAAAGCUGGCCUGUCCUUCUGC [hsa-mir-4314]: 0.681
